system: CCRF-CEM leukemia; test: NCI-60 one-dose screen, 48 h; settings: 10 µM unless noted
The panel holds about 83,000 compounds, 20% with a hit somewhere; the sample as a whole holds those more often. Activity calls are given as the source filed them. The calls were made as follows: active = growth percent below 10; inactive = the rest.
Give your call using only these classes: label 1 (active), label 0 (inactive)

Prompt: Please let me know the test result on file for C[C@]12CCc3nc(Nc4ccccc4)sc3C1=CC[C@@H]1[C@@H]2CC[C@]2(C)/C(=N/NC(N)=S)CC[C@@H]12 .
Response: label 0

Prompt: Okay, and O=[N+]([O-])c1cc(CCl)ccc1OCCBr ?
Response: label 0

Prompt: Okay, and O=C(O)c1cn(C2CC2)c2cc(N3CCN(Cc4cc(Cl)ccc4O)CC3)c(F)cc2c1=O ?
Response: label 0

Prompt: Okay, and COc1ccc(C(=O)/C=C/c2ccccn2)c(O)c1 ?
Response: label 0

Prompt: Okay, and CC[C@@](C)(NC(=O)[C@H](C)NC(=O)CCNC(=O)C(C)(C)NC(=O)[C@H](C)NC(=O)[C@@H]1CCCN1C(=O)[C@@](C)(CC)NC(=O)[C@H](Cc1ccccc1)NC(=O)C1CCCN1C(=O)C(C)(C)NC(=O)C1CCCN1C(=O)C(C)(C)NC(C)=O)C(=O)NCCC(=O)N[C@@H](CC(C)C)C(=O)NC(C)(C)C(=O)NCCC(=O)N[C@@H](CC(C)C)C(=O)NC(C)(C)C(=O)NC(C)(C)C(=O)N[C@@H](CC(C)C)C(=O)NCCC(=O)NCO (stereo not given in full) ?
Response: label 1

Prompt: Okay, and COc1ccc(OC)c([N+](=O)[O-])c1C(=O)CNC(C)=O ?
Response: label 0

Prompt: Okay, and CCN(CC)CCCC(C)Nc1ccnc2cc(Cl)c(SCc3ccccc3)cc12 (stereo not given) ?
Response: label 1

Prompt: Okay, and C=CC1=C(C)C2=NC1=CC1=NC(=CC3=C(C)C4=C(O)C(C(=O)O)C(=C5NC(=C2)C(C)C5CCC(=O)O)C4=N3)C(CC)=C1C (stereo not given) ?
Response: label 0

Prompt: Okay, and FC(F)(F)c1ccc2c(c1)Sc1ccccc1N2 ?
Response: label 0

Prompt: Okay, and Cc1ncc(C(=O)Nc2ccc(CN3CCN(C)CC3)c(C(F)(F)F)c2)cc1C#Cc1c(N)ncc2ccc(C#N)cc12 ?
Response: label 0

Prompt: Okay, and O=C(COc1cccc(/C=C2\Oc3ccccc3C2=O)c1)c1ccc([N+](=O)[O-])cc1 ?
Response: label 0

Prompt: Okay, and CCCCC(CCCCCC(CCCC)C1NC(C)Cc2cc(OC)c(OC)cc21)C1NC(C)Cc2cc(OC)c(OC)cc21 (stereo not given) ?
Response: label 1

Prompt: Okay, and C#CCNC(=O)CC[C@@H](C)[C@H]1CC[C@H]2[C@@H]3CC[C@@H]4CC(=O)CC[C@]4(C)[C@H]3CC[C@]12C ?
Response: label 1

Prompt: Okay, and CCOC(=O)n1cc(C2=C(c3ccc(OC)c(OC)c3)COC2=O)c2ccccc21 ?
Response: label 0

Prompt: Okay, and COc1ccc(C2CC(c3cc(OC)c(OC)c(OC)c3)=NN2C(C)=O)cc1OCC(=O)Nc1nc2ccc(C(F)(F)F)cc2s1 (stereo not given) ?
Response: label 0

----------
system: NCI-H322M lung; assay: NCI-60 one-dose screen, 48 h (100 = growth as untreated, 0 = no growth, -100 = all killed); conditions: 10 µM unless noted
This is part of a sample that, as a whole, favours compounds with a hit. Of some 83,000 tested, about 20% had one in any assay.
Field: growth. Provide a value for each of the compounds that follow.
Answer in %, number only, no unit symbol.

Prompt: Which growth is reported for this compound? O=C1CC(c2ccc3c(c2)OCO3)Nc2ccccc21 (centres undefined)
Response: 51.3

Prompt: Okay, and COC(=O)c1cc(O)c2c(c1C(=O)OC)C[C@H]1[C@@H]3CC=C4C[C@@H](O)CC[C@]4(C)[C@H]3CC[C@]21C ?
Response: 66

Prompt: Okay, and c1coc2occoc=2o1 ?
Response: 110

Prompt: Okay, and COc1ccc2c(c1)c(-c1noc(C(=O)c3cn(C)c4ncc(Br)cc34)n1)cn2C ?
Response: 92.9

From: PubChem BioAssay (NCI)
